target: AGO2 L192P (Homo sapiens, UniProt Q9UKV8 1-859, L192P;S387D;S824A;S828D;S831D;S834A); test: RNA Bind-n-Seq (nitrocellulose filter binding and sequencing); miR-122 guide loaded in AGO2; 60 min incubation; 30 mM Tris pH 8.0, 100 mM potassium acetate, 2 mM magnesium acetate, 0.5 mM TCEP, 0.005% NP-40, 0.01 mg/ml yeast tRNA; 3 nM AGO2-miR-122, 100 nM RNA library; 60; high values mean tight binding; settings: protein: recombinant; tags: His6 (N-terminal, pFastBac HTA)
Sequence (Q9UKV8 whole entry L192P/S387D/S824A/S828D/S831D/S834A): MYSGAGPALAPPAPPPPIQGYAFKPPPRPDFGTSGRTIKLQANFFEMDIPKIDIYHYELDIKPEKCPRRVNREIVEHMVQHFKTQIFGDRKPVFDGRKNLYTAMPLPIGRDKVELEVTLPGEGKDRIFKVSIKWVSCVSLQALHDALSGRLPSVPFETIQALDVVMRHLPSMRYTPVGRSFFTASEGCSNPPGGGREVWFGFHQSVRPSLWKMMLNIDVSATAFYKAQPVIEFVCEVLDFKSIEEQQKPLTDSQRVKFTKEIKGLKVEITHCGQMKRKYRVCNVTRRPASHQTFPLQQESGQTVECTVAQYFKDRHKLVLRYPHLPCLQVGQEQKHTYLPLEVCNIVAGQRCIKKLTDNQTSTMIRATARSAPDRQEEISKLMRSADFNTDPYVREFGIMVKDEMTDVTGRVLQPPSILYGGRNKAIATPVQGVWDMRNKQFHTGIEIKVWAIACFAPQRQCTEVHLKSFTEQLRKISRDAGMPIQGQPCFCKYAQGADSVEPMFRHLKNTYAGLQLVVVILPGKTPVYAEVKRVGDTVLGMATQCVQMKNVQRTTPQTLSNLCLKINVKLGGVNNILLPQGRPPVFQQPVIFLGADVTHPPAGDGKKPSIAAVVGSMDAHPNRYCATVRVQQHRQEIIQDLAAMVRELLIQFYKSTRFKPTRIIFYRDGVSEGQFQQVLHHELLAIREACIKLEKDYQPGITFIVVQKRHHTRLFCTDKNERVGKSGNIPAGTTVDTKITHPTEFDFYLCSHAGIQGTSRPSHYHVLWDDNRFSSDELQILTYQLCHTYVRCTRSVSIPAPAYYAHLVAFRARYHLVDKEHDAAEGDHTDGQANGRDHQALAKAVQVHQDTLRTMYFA
observable: binding signal

Measured binding signal, ATACCCTG (ssRNA, constant regions annealed to DNA blockers; guide miR-122 5' phosphate) RNA 1: GAGUUCUACAGUCCGACGAUCCCAACAUACCCUGCACCUGGAAUUCUCGGGUGCCAA RNA 2: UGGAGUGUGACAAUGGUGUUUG DNA 1: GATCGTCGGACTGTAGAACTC DNA 2: TTGGCACCCGAGAATTCCA : 0.364 fold enrichment over input

Recorded binding signal (binder GTGCCCCA (ssRNA, constant regions annealed to DNA blockers; guide miR-122 5' phosphate) RNA 1: GAGUUCUACAGUCCGACGAUCCCAACGUGCCCCACACCUGGAAUUCUCGGGUGCCAA RNA 2: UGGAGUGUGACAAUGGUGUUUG DNA 1: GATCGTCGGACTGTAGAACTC DNA 2: TTGGCACCCGAGAATTCCA ): 0.464 fold enrichment over input

The measured binding signal associated with GCATTTTG (ssRNA, constant regions annealed to DNA blockers; guide miR-122 5' phosphate) RNA 1: GAGUUCUACAGUCCGACGAUCCCAACGCAUUUUGCACCUGGAAUUCUCGGGUGCCAA RNA 2: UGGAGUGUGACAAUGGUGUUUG DNA 1: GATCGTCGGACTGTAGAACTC DNA 2: TTGGCACCCGAGAATTCCA reads 0.36 fold enrichment over input

binding signal recorded for this binder, ATACTTCA (ssRNA, constant regions annealed to DNA blockers; guide miR-122 5' phosphate) RNA 1: GAGUUCUACAGUCCGACGAUCCCAACAUACUUCACACCUGGAAUUCUCGGGUGCCAA RNA 2: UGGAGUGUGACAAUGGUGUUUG DNA 1: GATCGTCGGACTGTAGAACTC DNA 2: TTGGCACCCGAGAATTCCA , is 0.646 fold enrichment over input

The value of binding signal measured for the binder ATATCTTG (ssRNA, constant regions annealed to DNA blockers; guide miR-122 5' phosphate) RNA 1: GAGUUCUACAGUCCGACGAUCCCAACAUAUCUUGCACCUGGAAUUCUCGGGUGCCAA RNA 2: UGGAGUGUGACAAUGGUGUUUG DNA 1: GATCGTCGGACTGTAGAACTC DNA 2: TTGGCACCCGAGAATTCCA turned out to be 0.409 fold enrichment over input

For reference, reported binding signal for GTATCTCG (ssRNA, constant regions annealed to DNA blockers; guide miR-122 5' phosphate) RNA 1: GAGUUCUACAGUCCGACGAUCCCAACGUAUCUCGCACCUGGAAUUCUCGGGUGCCAA RNA 2: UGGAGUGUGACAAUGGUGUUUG DNA 1: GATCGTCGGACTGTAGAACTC DNA 2: TTGGCACCCGAGAATTCCA stands at 0.333 fold enrichment over input

Entry GTGCCCTG (ssRNA, constant regions annealed to DNA blockers; guide miR-122 5' phosphate) RNA 1: GAGUUCUACAGUCCGACGAUCCCAACGUGCCCUGCACCUGGAAUUCUCGGGUGCCAA RNA 2: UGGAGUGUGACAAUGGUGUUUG DNA 1: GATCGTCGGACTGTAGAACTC DNA 2: TTGGCACCCGAGAATTCCA — recorded binding signal = 0.425 fold enrichment over input

Notebook: ATACTCCG (ssRNA, constant regions annealed to DNA blockers; guide miR-122 5' phosphate) RNA 1: GAGUUCUACAGUCCGACGAUCCCAACAUACUCCGCACCUGGAAUUCUCGGGUGCCAA RNA 2: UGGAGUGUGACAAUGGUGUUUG DNA 1: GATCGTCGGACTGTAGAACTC DNA 2: TTGGCACCCGAGAATTCCA , binding signal read as 1.86 fold enrichment over input
